Tested on: MOLT-4 leukemia
Assay: NCI-60 one-dose screen, 48 h
Details: 10 µM unless noted
Compounds without any hit were thinned out: in the full panel of roughly 83,000, 20% have a hit. Calls of active or inactive are those of the source. How the source made its calls: active means growth percent below 10; inactive means the rest.
Outcomes: YES for active, NO for inactive

molecule=CC(C)[C@@H](C)/C=C/[C@@H](C)[C@H]1CCC2=C3C=CC4=CC(=O)CC[C@]4(C)[C@H]3CC[C@@]21C categorylabel=NO
molecule=COc1cc2ncnc(Oc3cccc(NC(=O)Nc4cc(C(C)(C)C(F)(F)F)on4)c3)c2cc1OC categorylabel=NO
molecule=COc1cc2nccc(Oc3ccc(NC(=O)Nc4cc(C)on4)c(Cl)c3)c2cc1OC categorylabel=YES
molecule=ClCc1ccc(-c2ccc(Cn3cnc4nc(Cl)nc(Cl)c43)cc2)cc1 categorylabel=YES
molecule=CN1CCN(c2ccc(C(=O)Nc3n[nH]c4ccc(Cc5cc(F)cc(F)c5)cc34)c(NC3CCOCC3)c2)CC1 categorylabel=YES
molecule=Cc1cc(N(CCNc2ccnc3cc(Cl)ccc23)Cc2ccc3c(c2)OCO3)nc(N2CCN(C)CC2)n1 categorylabel=YES
molecule=C=CC(=O)N1CCC[C@H](n2c(=O)n(-c3ccc(Oc4ccccc4)cc3)c3c(N)ncnc32)C1 categorylabel=NO
molecule="C=CCCCOC1[C@H](OCc2ccccc2)C(OCc2ccccc2)C(OC)O[C@@H]1CNC(=O)c1cccc(I)c1 (some centres undefined)" categorylabel=NO
molecule="O=C1OCC2=C1C(c1cccc(F)c1)c1cc3c(cc1N2CCO)OCCO3 (centres undefined)" categorylabel=YES
